Tested on: IgE
Test: IgE produced in in vitro culture of spleen cells from DNP-As immunized mice (ELISA)
Assay type: cell-based, BALB/c mice
Conditions: Mus musculus, 96 h; 5 μg/ml; spleen cell culture, 37° C., 4 days
reported-endpoint: inhibition at 5 µg/mL (%)
Lab book: enter the figure in %, no units written.

Example entries begin here.
CCOC(=O)c1c(-c2ccc(Cl)cc2Cl)c(C#N)c(=O)n2ccccc12 = 64
N#Cc1c(N2CCN(CCO)CC2)c(C(=O)OCCCc2ccccc2)c2ccccn2c1=O = 59
CCOC(=O)c1c(N2CCCCC2)c(C#N)c(=O)n2ccccc12 = 30
CCOC(=O)c1c(-c2ccccc2)c(C#N)c(=O)n2ccccc12 = 47

Here is the next item to consider.
Fetch value of inhibition at 5 µg/mL on IgE for `N#Cc1c(N2CCCCC2)c(C(=O)OCCCc2ccccc2)c2ccccn2c1=O` .
39
